pIC50: −log10 of the molar value.
Listing of pIC50 toward Ubiquitin carboxyl-terminal hydrolase 7 (Homo sapiens), each taken from a published source.

{"compound": "CC1(C)CNCC(Cc2c(Cl)cc(Cl)cc2-c2ncnc3cc(CN4C(=O)C5CC5C4=O)sc23)O1 (stereo not shown)", "pIC50": "> 8.00"}
{"compound": "O=C(C1Cc2cc(Cl)c(F)c(-c3ccnc4[nH]ccc34)c2O1)N1CCNCC1 (stereo not shown)", "pIC50": "4.52 to 5.00"}
{"compound": "Cc1cc(Cl)cc(-c2ccnc3cc(Cn4c(=O)ccn(C5CCC5)c4=O)sc23)c1CC1CNCCO1 (stereo not shown)", "pIC50": "> 8.00"}
{"compound": "O=C1CCC(=O)N1Cc1cc2nccc(-c3cc(Cl)cc(Cl)c3CC3CNCCO3)c2s1 (stereo not shown)", "pIC50": "> 8.00"}
{"compound": "CC1(C)C2C(=O)N(Cc3cc4ncnc(-c5cc(Cl)cc(Cl)c5CC5CNCCO5)c4s3)C(=O)C21 (stereo not shown)", "pIC50": "> 8.00"}

For reference, reported pIC50 for O=C1OCCN1Cc1cc2nccc(-c3cc(Cl)cc4c3O[C@@H](C(=O)N3CCNCC3)C4)c2s1 stands at > 6.00

For reference, reported pIC50 for Cc1cc(Cl)cc(-c2ncnc3cc(CN4C(=O)CCN(C)C4=O)sc23)c1CC1CNCC2(CCC2)O1 (stereo not shown) stands at > 8.00

For reference, reported pIC50 for Cc1cc(Cl)cc(-c2ccnc3cc(CN4C(=O)C5CC5C4=O)sc23)c1CN1C[C@@H](C)NC[C@H]1C (stereo partly shown) stands at > 8.00

For reference, reported pIC50 for CC[C@@H](O)c1cc2nccc(-c3cc(Cl)cc4c3O[C@](C)(c3onc5c3CNCC5)C4)c2s1 stands at > 6.00

For reference, reported pIC50 for Cc1cc(Cl)cc(-c2ccnc3cc(CN4C(=O)C5CC5C4=O)sc23)c1C[C@H]1CNCC(C)(C)O1 (stereo partly shown) stands at 7.00 to 8.00

For reference, reported pIC50 for Cc1cc(Cl)cc(-c2ncnc3cc(CN4C(=O)CCCC4=O)sc23)c1CC1CNCCO1 (stereo not shown) stands at > 8.00

For reference, reported pIC50 for N#CN1Cc2cnn(-c3cnn(-c4ccccc4)c3)c2C1 stands at > 5.00

For reference, reported pIC50 for O=C(C1Cc2cc(Cl)cc(-c3ccnc4[nH]ccc34)c2O1)N1CCC(O)(Cc2cccnc2)CC1 (stereo not shown) stands at 4.52 to 5.00

For reference, reported pIC50 for CC[C@@H](O)c1cc2nccc(-c3cc(Cl)cc4c3O[C@@](C)(c3onc5c3CNCC5)C4)c2s1 stands at > 6.00

For reference, reported pIC50 for N#Cc1cc2c(c(-c3ccnc4cc(Cn5c(=O)ccn(C6CC6)c5=O)sc34)c1)N([C@H]1CCNC1)CCC2 stands at > 8.00

For reference, reported pIC50 for CC(Cc1cc2nccc(-c3cc(Cl)cc4c3O[C@@H](C(=O)N3CCNCC3)C4)c2s1)NS(C)(=O)=O (stereo partly shown) stands at > 6.00
